target: MtbAdoK (Mycobacterium tuberculosis, UniProt P9WID5)
Sequence (P9WID5 whole entry, looked up): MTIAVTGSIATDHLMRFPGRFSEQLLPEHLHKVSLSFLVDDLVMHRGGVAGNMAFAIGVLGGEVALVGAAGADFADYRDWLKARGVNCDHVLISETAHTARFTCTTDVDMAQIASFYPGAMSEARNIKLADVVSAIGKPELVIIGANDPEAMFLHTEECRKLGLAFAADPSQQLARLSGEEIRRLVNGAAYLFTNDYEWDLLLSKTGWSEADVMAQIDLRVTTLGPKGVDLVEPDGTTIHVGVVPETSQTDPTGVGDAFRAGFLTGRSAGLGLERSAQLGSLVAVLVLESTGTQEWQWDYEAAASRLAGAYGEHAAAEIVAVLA
pIC50: −log10 of the molar value.
The following compounds are listed with their measured pIC50 values.

[[record]]
compound_smiles = "O=C(NC[C@H]1O[C@@H](n2cnc3c(N4CCN(c5ccc(C(F)(F)F)cc5)CC4)ncnc32)[C@H](O)[C@@H]1O)c1ccccc1"
reported_measurement = "< 4.30"

[[record]]
compound_smiles = "Cc1ccc(S(=O)(=O)NC[C@H]2O[C@@H](n3cnc4c(N5CCN(c6ccc(C(F)(F)F)cc6)CC5)ncnc43)[C@H](O)[C@@H]2O)cc1"
reported_measurement = "≤ 4.90"

[[record]]
compound_smiles = "O[C@@H]1[C@H](O)[C@@H](CNc2ccc(F)cc2)O[C@H]1n1cnc2c(N3CCN(c4ccc(C(F)(F)F)cc4)CC3)ncnc21"
reported_measurement = "< 4.30"

[[record]]
compound_smiles = "CS(=O)(=O)Nc1ccc(NC[C@H]2O[C@@H](n3cnc4c(N5CCN(c6ccc(C(F)(F)F)cc6)CC5)ncnc43)[C@H](O)[C@@H]2O)cc1"
reported_measurement = "< 4.30"

[[record]]
compound_smiles = "O=[N+]([O-])c1ccc(NC[C@H]2O[C@@H](n3cnc4c(N5CCN(c6ccc(C(F)(F)F)cc6)CC5)ncnc43)[C@H](O)[C@@H]2O)cc1"
reported_measurement = "< 4.30"


// below: pIC50 requested for another compound
Prompt line: Name the recorded pIC50 for "O[C@@H]1[C@H](O)[C@@H](COCc2ccccc2)O[C@H]1n1cnc2c(N3CCN(c4ccc(-c5ccccc5)cc4)CC3)ncnc21" .
Response line: < 4.30
